Data origin: patent US9955691B2

Tested on: Mycosphaerella graminicola; Anamorph: Septoria tritici
Test: Fungicidal activity: Leaf Blotch of Wheat (SEPTTR)
Type: in vivo
Settings: Zymoseptoria tritici, 24 h; Low Volume (121.5 g/H), 1 Day Protectant, wheat leaf blotch; read-out: SEPTTR 1 DP disease control
test-readout: pest or weed control at 121.5 g/ha

Problem: Fill blank: measured pest or weed control at 121.5 g/ha of the compound `COc1ccnc(C(=O)N[C@H]2COC[C@H](Cc3ccccc3)[C@@H](CCC(C)C)[C@H](C)OC2=O)c1OCOC(C)=O` is ____.
Solution: > 70%

Problem: Another compound: `COc1ccnc(C(=O)N[C@H]2COC[C@H](Cc3ccccc3)[C@@H](c3ccccc3)[C@H](C)OC2=O)c1OC(C)=O`
Solution: > 70%

Problem: Another compound: `COc1ccnc(C(=O)N[C@H]2COC[C@H](CC3CC3)[C@@H](c3ccccc3)[C@H](C)OC2=O)c1OC(C)=O`
Solution: > 70%

Problem: Another compound: `CCC[C@H]1COC[C@H](NC(=O)c2nccc(OC)c2OCOC(C)=O)C(=O)O[C@@H](C)[C@@H]1CC(C)C`
Solution: < 70%

###

Test system: Puccinia triticina
Assay: Fungicidal activity: Wheat Brown Rust (PUCCRT)
Assay type: in vivo
Conditions: 24 h, High Volume (100 ppm), 1 Day Protectant, read-out: PUCCRT 1 DP disease control
Task for the reader: assign each of the following compounds its reported pest or weed control at 100 µg/mL.

Problem: What is its pest or weed control at 100 µg/mL for Puccinia triticina? Entry: COc1ccnc(C(=O)N[C@@H]2COC[C@@H](Cc3ccccc3)[C@H](COCC(C)C)[C@@H](C)OC2=O)c1OCOC(C)=O [compound 13]
Solution: > 70%

Problem: Another compound: C=C[C@@H]1[C@@H](Cc2ccccc2)COC[C@H](NC(=O)c2nccc(OC)c2OCOC(C)=O)C(=O)O[C@H]1C [compound 9]
Solution: > 70%

Problem: Another compound: COc1ccnc(C(=O)N[C@H]2COC[C@H](CC3CC3)[C@@H](c3ccccc3)[C@H](C)OC2=O)c1O [compound 154]
Solution: > 70%

Problem: Another compound: COc1ccnc(C(=O)N[C@H]2COC[C@H](Cc3ccccc3)[C@@H](Cc3ccccc3)[C@H](C)OC2=O)c1O [Cmpd. 112]
Solution: < 70%

###

System: Mycosphaerella graminicola; Anamorph: Septoria tritici
Experiment: Fungicidal activity: Leaf Blotch of Wheat (SEPTTR)
Format: in vivo
Details: Zymoseptoria tritici, 24 h; High Volume (100 ppm), 1 Day Protectant, wheat leaf blotch; read-out: SEPTTR 1 DP disease control
test-readout: pest or weed control at 100 µg/mL

Problem: Fill blank: measured pest or weed control at 100 µg/mL of the compound `COc1ccnc(C(=O)N[C@H]2COC[C@H](Cc3ccc(Cl)cc3)[C@@H](CC(C)C)[C@H](C)OC2=O)c1O` is ____.
Solution: > 70%

Problem: Another compound: `COc1ccnc(C(=O)N[C@H]2COC[C@H](CCCc3ccccc3)[C@@H](Cc3ccc(OC(F)(F)F)cc3)[C@H](C)OC2=O)c1O`
Solution: < 70%

Problem: Another compound: `COc1ccnc(C(=O)N[C@H]2COC[C@H](CC3CCCC3)[C@@H](CC3CCCC3)[C@H](C)OC2=O)c1O`
Solution: > 70%

Problem: Another compound: `COc1ccnc(C(=O)N[C@H]2COC[C@H](c3ccccc3)[C@@H](c3ccccc3)[C@H](C)OC2=O)c1OCOC(C)=O`
Solution: > 70%

Problem: Another compound: `COc1cccc(C[C@H]2COC[C@H](NC(=O)c3nccc(OC)c3O)C(=O)O[C@@H](C)[C@@H]2Cc2cccc(OC)c2)c1`
Solution: < 70%

Problem: Another compound: `CCCC[C@@H]1[C@@H](Cc2ccc(C(F)(F)F)cc2)COC[C@H](NC(=O)c2nccc(OC)c2O)C(=O)O[C@H]1C`
Solution: < 70%
